# credit: paper PMC3810134

- measured-target: PAK6 catalytic domain (residues 383–674) (Homo sapiens)
- Construct: recombinant PAK6 catalytic domain (residues 383–674) purified as described above; 6xHis (N, cleaved yes); made in house; host or cells: E. coli BL21(DE3)
- Sequence (Q9NQU5 383-674): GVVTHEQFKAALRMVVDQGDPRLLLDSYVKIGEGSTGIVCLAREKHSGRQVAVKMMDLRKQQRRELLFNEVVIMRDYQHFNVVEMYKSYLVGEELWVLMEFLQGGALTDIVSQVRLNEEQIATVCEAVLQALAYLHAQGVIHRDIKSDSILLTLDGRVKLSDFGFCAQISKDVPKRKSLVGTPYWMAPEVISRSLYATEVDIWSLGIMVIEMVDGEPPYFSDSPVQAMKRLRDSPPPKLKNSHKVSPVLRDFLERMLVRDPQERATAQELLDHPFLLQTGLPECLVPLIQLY
- method-description: In vitro PAK6 kinase assay (trans-inhibition by peptides, MBP substrate, radioactive)
- Assay type: biochemical
- run-parameters: 150 nM PAK6, 2 µM MBP, 50 µM cold-ATP, [γ-33P] ATP, 20 mM Tris-HCl pH 8.0, 0.15 M NaCl, 1 mM DTT, 10 mM MgCl2, 30°C, 10 min, SDS-PAGE/phosphor storage screen; 3 independent experiments; tested wild-type 0.06-5.85 mM, P52L 1.8-5.85 mM, control 0.5-4.5 mM; read-out: IC50 (inhibition of PAK6 kinase activity)
No end group written: not given here.
measured-metric: IC50 (µM)
Numbers only, in µM.

RRPKPVVDP [N-terminal peptide] :: 600

Kindly review the next sequence as well.
IN: What value of IC50 has been reported for the following sequence? RRPKLVVDP [P52L mutant peptide]
OUT: 4200
